- Tested on: Mycobacterium tuberculosis
- Measurement Notes: Antimycobacterial activity against Mycobacterium tuberculosis InhA-OE strain assessed as inhibition of microbial growth at 20 uM incubated for 5 days by serial microdilution based colorimetric assay
- Type: functional
- Measurement Context: 120 h, time 5 day
Reported Endpoint: MIC (µM)
Just the number please, in µM, no unit attached.

chemical_string=COC(=O)/C=C/N(/N=C/c1ccco1)S(=O)(=O)c1ccc(C)cc1 value_reported=10
chemical_string=C/C=C/C=C/C=N/N(/C=C/C(=O)OC)S(=O)(=O)c1ccc(C)cc1 value_reported=10
chemical_string=COC(=O)/C=C/N(/N=C/c1ccccc1)S(=O)(=O)c1ccc(C)cc1 value_reported=2.5
chemical_string=COC(=O)/C=C/N(/N=C/C=C(C)C)S(=O)(=O)c1ccc(C)cc1 value_reported=10
chemical_string=COC(=O)/C=C/N(/N=C/c1ccc2ccccc2c1)S(=O)(=O)c1ccc(C)cc1 value_reported=2.5

[in] Give the measured MIC of `COC(=O)/C=C/N(/N=C/c1ccccc1OC)S(=O)(=O)c1ccc(C)cc1` .
[out] 5

* * *

- Measurement Notes: Cytotoxicity against African green monkey Vero E6 cells assessed as reduction in cell viability incubated for 48 hrs by neutral red assay
- Format: cell-based
- Measurement Context: Chlorocebus aethiops
Reported Endpoint: IC50

Example entries begin here.
chemical_string=COC(=O)/C=C/N(/N=C/c1ccccc1OC)S(=O)(=O)c1ccc(C)cc1 value_reported="> 12.2 µM"
chemical_string=COC(=O)/C=C/N(/N=C/c1ccc2ccccc2c1)S(=O)(=O)c1ccc(C)cc1 value_reported="> 11.6 µM"

Lab note: next compound to report on.
[in] // returns reported IC50 for input `COC(=O)/C=C/N(/N=C/c1ccccc1)S(=O)(=O)c1ccc(C)cc1`
[out] > 13.3 µM

* * *

- Measurement Notes: Selectivity index, ratio of CC50 for african green monkey Vero cells to MIC for Mycobacterium tuberculosis H37Rv
- Type: toxicity
- Measurement Context: read-out: Selectivity Index
The following compounds are listed with their measured selectivity ratio values.
Lab note: write the figure by itself, no unit.

The following compounds have reported results that may help.
chemical_string=COC(=O)/C=C/N(/N=C/c1ccccc1OC)S(=O)(=O)c1ccc(C)cc1 reported_endpoint="selectivity ratio" value_reported=9.76
chemical_string=COC(=O)/C=C/N(/N=C/c1ccc2ccccc2c1)S(=O)(=O)c1ccc(C)cc1 reported_endpoint="selectivity ratio" value_reported=9.28

Here is the next item to consider.
[in] Record request: selectivity ratio value, item `COC(=O)/C=C/N(/N=C/c1ccccc1)S(=O)(=O)c1ccc(C)cc1`
[out] 10.6
